B1: TPR 5TU (parent)
chain: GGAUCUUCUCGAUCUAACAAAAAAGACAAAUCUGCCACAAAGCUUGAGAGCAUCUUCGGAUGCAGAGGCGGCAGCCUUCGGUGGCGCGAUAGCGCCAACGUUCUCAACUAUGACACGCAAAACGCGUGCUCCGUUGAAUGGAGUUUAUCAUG

- Variants of: B1
- METHOD DESCRIPTION: polymerase ribozyme fitness, log enrichment relative to wild type (log ratio); higher = more active; in vitro selection for triplet polymerase activity
This sample holds only a part of the variants without activity.
OBSERVATION TYPE: polymerase ribozyme fitness (log ratio)

VARIANT NAME	BOUND TYPE	NUMERIC RESULT
U45A G46C C85G G88C C93U A115C A150G	≤	-4.2
C75U G83C	=	-1.13
C36G A49C G58A G70C U82G A98U U104A A106G	≤	-4.2
C14U G50A G58C A121C	=	-3.27
A12C A24G A52C A60C	≤	-4.2
U44A G46C C87U	≤	-4.2
A40U C75U C95U A98U G140A	=	-3.39
A22U U55A G94A A98U U135A	=	-2.29

This collection of values is drawn from the RNAGym collection of RNA variant scans (doi:10.1073/pnas.2313332121).
